Molecular target: T1, rat angiotensin 2 type 1 receptor (rat, UniProt P25095 1-359)
T1 sequence (looked up): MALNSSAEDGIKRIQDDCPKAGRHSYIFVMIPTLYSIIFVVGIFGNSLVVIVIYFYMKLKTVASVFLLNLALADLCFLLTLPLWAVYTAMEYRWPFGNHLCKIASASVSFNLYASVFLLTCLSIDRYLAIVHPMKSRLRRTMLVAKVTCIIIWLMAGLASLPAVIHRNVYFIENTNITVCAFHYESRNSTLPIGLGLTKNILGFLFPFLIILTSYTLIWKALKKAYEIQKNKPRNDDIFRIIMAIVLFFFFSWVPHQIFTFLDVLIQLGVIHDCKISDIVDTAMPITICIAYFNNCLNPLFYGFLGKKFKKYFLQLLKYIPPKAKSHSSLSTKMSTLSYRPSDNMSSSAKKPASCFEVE
Experiment: cell-based or functional assay
Where no end group is shown, it is not given here. [ ]: non-standard residue; d: D form. Tle = CC(C)(C)[C@H](N)C(=O)O; Ac6c = NC1(C(=O)O)CCCCC1; Ac5c = NC1(C(=O)O)CCCC1; Aib = CC(C)(N)C(=O)O; Sar = CNCC(=O)O
measurement_name: beta-arrestin2 assay pEC50

Enquiry: Query: beta-arrestin2 assay pEC50; subject: [Sar]RVYPHP[dA] [SEQ ID NO: 60 (Sar-Arg-Val-Tyr-Pro-His-Pro-D-Ala)]
Return: < 8.5

Enquiry: Could you do the same for [Sar]RVY[Ac6c]HPW [SEQ ID NO: 54 (Sar-Arg-Val-Tyr-cyHex-His-Pro-Trp)] , please?
Return: < 8.5

Enquiry: Could you do the same for [Sar]RVY[Ac6c]HPS [SEQ ID NO: 15 (Sar-Arg-Val-Tyr-cyHex-His-Pro-Ser)] , please?
Return: < 8.5

Enquiry: Could you do the same for [Sar]RVY[Ac6c]HPP [SEQ ID NO: 39 (Sar-Arg-Val-Tyr-cyHex-His-Pro-Pro)] , please?
Return: < 8.5

Enquiry: Could you do the same for [Sar]RVY[Ac5c]HPV [SEQ ID NO: 20 (Sar-Arg-Val-Tyr-cyPen-His-Pro-Val)] , please?
Return: < 8.5

Enquiry: Could you do the same for [Sar]RVY[Ac6c]HP[Tle] [SEQ ID NO: 56 (Sar-Arg-Val-Tyr-cyHex-His-Pro-AA02)] , please?
Return: < 8.5

Enquiry: Could you do the same for [Sar]RVY[Ac5c]HPT [SEQ ID NO: 21 (Sar-Arg-Val-Tyr-cyPen-His-Pro-Thr)] , please?
Return: < 8.5

Enquiry: Could you do the same for [Sar]RVY[Ac5c]HPM [SEQ ID NO: 23 (Sar-Arg-Val-Tyr-cyPen-His-Pro-Met)] , please?
Return: < 8.5

Enquiry: Could you do the same for [Sar]RVY[Ac6c]HPV [SEQ ID NO: 13 (Sar-Arg-Val-Tyr-cyHex-His-Pro-Val)] , please?
Return: < 8.5

Enquiry: Could you do the same for [Sar]RVY[Ac6c]HPD [SEQ ID NO: 44 (Sar-Arg-Val-Tyr-cyHex-His-Pro-Asp)] , please?
Return: < 8.5

Enquiry: Could you do the same for [Sar]RVY[Ac6c]HPH [SEQ ID NO: 37 (Sar-Arg-Val-Tyr-cyHex-His-Pro-His)] , please?
Return: < 8.5

Enquiry: Could you do the same for [Sar]RVY[Aib]HPV [SEQ ID NO: 33 (Sar-Arg-Val-Tyr-AA01-His-Pro-Val)] , please?
Return: < 8.5

Enquiry: Could you do the same for [Sar]RVY[Ac6c]HPY [SEQ ID NO: 55 (Sar-Arg-Val-Tyr-cyHex-His-Pro-Tyr)] , please?
Return: < 8.5

Enquiry: Could you do the same for [Sar]RVY[Ac5c]HPI [SEQ ID NO: 18 (Sar-Arg-Val-Tyr-cyPen-His-Pro-Ile)] , please?
Return: < 8.5

Enquiry: Could you do the same for [Sar]RVYPHPI [SEQ ID NO: 4 (Sar-Arg-Val-Tyr-Pro-His-Pro-Ile)] , please?
Return: < 8.5

Enquiry: Could you do the same for [Sar]RVY[Tle]HPT [SEQ ID NO: 30 (Sar-Arg-Val-Tyr-AA02-His-Pro-Thr)] , please?
Return: < 8.5

Hello, the source for this data is patent US20150105316A1, in case you need it.
